meta.source: the FLAb antibody collection (doi:10.7554/elife.23156)

B1: scFv; the commonest letter at each place (parent)
chain 1: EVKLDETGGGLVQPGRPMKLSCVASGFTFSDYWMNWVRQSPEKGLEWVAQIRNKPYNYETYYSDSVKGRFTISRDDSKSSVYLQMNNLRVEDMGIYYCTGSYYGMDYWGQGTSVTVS
chain 2: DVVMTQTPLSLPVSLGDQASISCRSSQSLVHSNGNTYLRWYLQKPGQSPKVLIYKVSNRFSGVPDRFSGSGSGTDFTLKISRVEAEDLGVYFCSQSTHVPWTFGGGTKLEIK

Variants of: B1
assayNotes: Kd (Tite-Seq)
assaySetup: with fluorescein; format: scFv 4-4-20, heavy + light
pKd: −log10 of the molar value.
Measured pKd, listed per entry for reference.
propertyMeasured: pKd

- variant: "chain 1 F29A W36A"
  recordedValue: "≤ 5.00"
- variant: "chain 1 S101Y Y107P"
  recordedValue: "≤ 5.00"
- variant: "chain 1 G100R Y103I"
  recordedValue: "≤ 5.00"
- variant: "chain 1 W108Y"
  recordedValue: "≥ 9.50"
- variant: "chain 1 D31G Y32D"
  recordedValue: "≤ 5.00"
- variant: "chain 1 T28E"
  recordedValue: 8.77
- variant: "chain 1 G100N D106Y"
  recordedValue: "≤ 5.00"
- variant: "chain 1 F29V W36L"
  recordedValue: "≤ 5.00"
- variant: "chain 1 S101G D106A"
  recordedValue: 7.34
- variant: "chain 1 Y102L G109K"
  recordedValue: "≤ 5.00"
- variant: "chain 1 G104I"
  recordedValue: "≤ 5.00"
- variant: "chain 1 G100A Y103K G109T"
  recordedValue: 5.49
- variant: "chain 1 Y32D N35Y"
  recordedValue: "≤ 5.00"
- variant: "chain 1 N35Y W36Y V37D"
  recordedValue: "≤ 5.00"
- variant: "chain 1 D106F"
  recordedValue: "≤ 5.00"
- variant: "chain 1 M105P D106E"
  recordedValue: "≤ 5.00"
- variant: "chain 1 F29K M34Y"
  recordedValue: 8.15
- variant: "chain 1 S101R D106L"
  recordedValue: "≤ 5.00"
- variant: "chain 1 Y102D Y107K G109H"
  recordedValue: "≤ 5.00"
- variant: "chain 1 G100S Y103L W108N"
  recordedValue: "≤ 5.00"
- variant: "chain 1 S101F G109S"
  recordedValue: "≤ 5.00"
- variant: "chain 1 F29P W33E"
  recordedValue: "≤ 5.00"
- variant: "chain 1 W36Q"
  recordedValue: "≤ 5.00"
- variant: "chain 1 V37K"
  recordedValue: 5.45
- variant: "chain 1 G100V Y103F"
  recordedValue: 6.06
- variant: "chain 1 Y32E V37Y"
  recordedValue: "≤ 5.00"
- variant: "chain 1 T28S W36R"
  recordedValue: 5.74
- variant: "chain 1 S101Q G104V"
  recordedValue: "≤ 5.00"
- variant: "chain 1 G100R Y103V W108N"
  recordedValue: "≤ 5.00"
- variant: "chain 1 Y102W G109P"
  recordedValue: "≤ 5.00"
- variant: "chain 1 T28P"
  recordedValue: 9.13
- variant: "chain 1 M105V W108C"
  recordedValue: 5.18
- variant: "chain 1 S30E D31N"
  recordedValue: 9.30
- variant: "chain 1 D31S V37H"
  recordedValue: 5.04
- variant: "chain 1 S30I M34V"
  recordedValue: 7.95
- variant: "chain 1 S101K Y102I"
  recordedValue: "≤ 5.00"
- variant: "chain 1 Y102T D106P"
  recordedValue: "≤ 5.00"
- variant: "chain 1 G100E W108G G109H"
  recordedValue: "≤ 5.00"
- variant: "chain 1 M34Y"
  recordedValue: 7.97
- variant: "chain 1 Y107S G109C"
  recordedValue: "≤ 5.00"
- variant: "chain 1 Y32I W36Y"
  recordedValue: "≤ 5.00"
- variant: "chain 1 Y103W D106K"
  recordedValue: "≤ 5.00"
- variant: "chain 1 D106L G109C"
  recordedValue: "≤ 5.00"
- variant: "chain 1 S30E M34W N35M"
  recordedValue: "≤ 5.00"
- variant: "chain 1 G100K Y107V"
  recordedValue: "≤ 5.00"
- variant: "chain 1 G100T G104V D106E"
  recordedValue: "≤ 5.00"
- variant: "chain 1 S101G Y102L"
  recordedValue: "≤ 5.00"
- variant: "chain 1 M105E G109W"
  recordedValue: "≤ 5.00"
- variant: "chain 1 F29L M34W"
  recordedValue: "≤ 5.00"
- variant: "chain 1 W33E V37Y"
  recordedValue: "≤ 5.00"
- variant: "chain 1 G100P G109A"
  recordedValue: "≤ 5.00"
- variant: "chain 1 F29G S30K"
  recordedValue: "≤ 5.00"
- variant: "chain 1 W108M G109E"
  recordedValue: 7.03
- variant: "chain 1 F29N"
  recordedValue: 5.28
- variant: "chain 1 M105I Y107Q"
  recordedValue: 5.09
- variant: "chain 1 Y103A D106I W108P"
  recordedValue: "≤ 5.00"
- variant: "chain 1 Y32M M34Q"
  recordedValue: "≤ 5.00"
- variant: "chain 1 G104A D106T"
  recordedValue: "≤ 5.00"
- variant: "chain 1 G104K Y107N"
  recordedValue: "≤ 5.00"
- variant: "chain 1 V37Y"
  recordedValue: 6.89
- variant: "chain 1 G100D Y103C"
  recordedValue: "≤ 5.00"
- variant: "chain 1 Y103H Y107I"
  recordedValue: "≤ 5.00"
- variant: "chain 1 G100F Y107I"
  recordedValue: "≤ 5.00"
- variant: "chain 1 G100Q G109M"
  recordedValue: "≤ 5.00"
- variant: "chain 1 Y32A W33I M34T"
  recordedValue: "≤ 5.00"
- variant: "chain 1 G104Y"
  recordedValue: "≤ 5.00"
- variant: "chain 1 M105D Y107D"
  recordedValue: "≤ 5.00"
- variant: "chain 1 T28R N35G"
  recordedValue: 7.79
- variant: "chain 1 T28W S30G Y32K"
  recordedValue: 5.81
- variant: "chain 1 Y102H W108A"
  recordedValue: 7.84
- variant: "chain 1 Y107I"
  recordedValue: 6.17
- variant: "chain 1 S30V M34H"
  recordedValue: "≤ 5.00"
- variant: "chain 1 Y32K W33T"
  recordedValue: "≤ 5.00"
- variant: "chain 1 M34T W36Y"
  recordedValue: "≤ 5.00"
- variant: "chain 1 M105R"
  recordedValue: 7.68
- variant: "chain 1 F29R"
  recordedValue: "≤ 5.00"
- variant: "chain 1 D106P W108K"
  recordedValue: "≤ 5.00"
- variant: "chain 1 T28F V37P"
  recordedValue: 9.23
- variant: "chain 1 G100W Y102S"
  recordedValue: 8.22
- variant: "chain 1 T28Q V37F"
  recordedValue: 7.68
- variant: "chain 1 S101W Y103A"
  recordedValue: "≤ 5.00"
- variant: "chain 1 T28V W33G"
  recordedValue: "≤ 5.00"
- variant: "chain 1 Y32K W33E"
  recordedValue: "≤ 5.00"
- variant: "chain 1 W33I"
  recordedValue: "≤ 5.00"
- variant: "chain 1 Y102V D106N"
  recordedValue: 8.67
